Method description: Cytotoxicity against human HCT116 cells assessed as decrease in cell viability after 72 hrs by MTT assay
Assay type: functional, cell-based
Conditions used: HCT-116, 72 h
pIC50: −log10 of the molar value.

# Compound, Censoring qualifier, pIC50
rows = [
    ("CC1(C)CC(n2nnc(-c3ccccc3)c2I)C2=C(O1)C(=O)c1ccccc1C2=O (configuration not stated)", "<", 5.01),
    ("CC1(C)OC2=C(C(=O)C(=O)c3ccccc32)[C@H](n2nnc(-c3ccccc3)c2I)[C@H]1Br", "<", 5.07),
    ("CC1(C)CC(n2nncc2-c2ccccc2)C2=C(O1)C(=O)c1ccccc1C2=O (configuration not stated)", "<", 4.89),
    ("CC1(C)OC2=C(C(=O)C(=O)c3ccccc32)[C@H](n2nncc2-c2ccccc2)[C@H]1Br", "=", 6.33),
    ("O=C1C(=O)c2ccccc2C2=C1CC(Cn1cc(C3(O)CCCCC3)nn1)O2 (configuration not stated)", "=", 4.90),
    ("O=C1C(=O)c2ccccc2C2=C1CC(Cn1nnc(-c3ccccc3)c1I)O2 (configuration not stated)", "=", 5.38),
    ("O=C1C(=O)c2ccccc2C2=C1CC(Cn1cc(-c3ccccc3)nn1)O2 (configuration not stated)", "=", 5.62),
]

* * *

Method description: Cytotoxicity against human PBMC assessed as decrease in cell viability after 72 hrs by MTT assay
Format: toxicity, cell-based
Conditions used: PBMC (peripheral blood mononuclear cells)
Each entry below carries its reported IC50 at 72 h.
Measure: IC50 at 72 h

# Compound, Measure, Result
rows = [
    ("O=C1C2=C(OC(Cn3nnc(-c4ccccc4)c3I)C2)C(=O)c2ccccc21 (stereo not drawn)", "IC50 at 72 h", "> 10.3 µM"),
    ("CC1(C)OC2=C(C(=O)C(=O)c3ccccc32)[C@H](n2nnc(-c3ccccc3)c2I)[C@H]1Br", "IC50 at 72 h", "> 8.48 µM"),
    ("O=C1C2=C(OC(Cn3nncc3-c3ccccc3)C2)C(=O)c2ccccc21 (stereo not drawn)", "IC50 at 72 h", "> 14 µM"),
    ("O=C1C2=C(OC(Cn3cc(-c4ccccc4)nn3)C2)C(=O)c2ccccc21 (stereo not drawn)", "IC50 at 72 h", "> 14 µM"),
    ("CC1(C)CC(n2nncc2-c2ccccc2)C2=C(O1)C(=O)c1ccccc1C2=O (stereo not drawn)", "IC50 at 72 h", "> 13 µM"),
    ("CC1(C)CC(n2cc(-c3ccccc3)nn2)C2=C(O1)C(=O)c1ccccc1C2=O (stereo not drawn)", "IC50 at 72 h", "> 13 µM"),
    ("O=C1C(=O)c2ccccc2C2=C1CC(Cn1cc(C3(O)CCCCC3)nn1)O2 (stereo not drawn)", "IC50 at 72 h", "> 13.2 µM"),
    ("CC1(C)CC(n2nnc(-c3ccccc3)c2I)C2=C(O1)C(=O)c1ccccc1C2=O (stereo not drawn)", "IC50 at 72 h", "> 9.78 µM"),
]

* * *

Overview of reported pIC50 across a group of molecules:
Tested on: Trypanosoma cruzi
Method description: Trypanocidal activity against bloodstream trypomastigote stage of Trypanosoma cruzi Y after 24 hrs by Neubauer chamber method
Format: functional
pIC50: −log10 of the molar value.
Measure: pIC50

# Molecule, Result
data = [
    ("CC1(C)OC2=C(C(=O)C(=O)c3ccccc32)[C@H](n2nnc(-c3ccccc3)c2I)[C@H]1Br", "< 3.00"),
    ("CC1(C)OC2=C(C(=O)c3ccccc3C2=O)C1n1nncc1-c1ccccc1 (stereo not drawn)", "< 3.00"),
    ("CC1(C)CC(n2cc(-c3ccccc3)nn2)C2=C(O1)C(=O)c1ccccc1C2=O (stereo not drawn)", "< 3.00"),
]

* * *

Here the recorded IC50 is given for each entry.
Method description: Cytotoxicity against human PC3 cells assessed as decrease in cell viability after 72 hrs by MTT assay
Assay type: functional, cell-based
Conditions used: PC-3, 72 h
Measure: IC50

# Compound, Result
records = [
    ("O=C1C2=C(OC(Cn3nncc3-c3ccccc3)C2)C(=O)c2ccccc21 (centres undefined)", "> 14 µM"),
    ("CC1(C)CC(n2cc(-c3ccccc3)nn2)C2=C(O1)C(=O)c1ccccc1C2=O (centres undefined)", "> 13 µM"),
    ("CC1(C)CC(n2nncc2-c2ccccc2)C2=C(O1)C(=O)c1ccccc1C2=O (centres undefined)", "> 13 µM"),
    ("O=C1C2=C(OC(Cn3cc(-c4ccccc4)nn3)C2)C(=O)c2ccccc21 (centres undefined)", "> 14 µM"),
]
